Target: T1, GRIP1_7, Q9Y3R0
T1 sequence (Q9Y3R0 999-1096, limits assumed, looked up): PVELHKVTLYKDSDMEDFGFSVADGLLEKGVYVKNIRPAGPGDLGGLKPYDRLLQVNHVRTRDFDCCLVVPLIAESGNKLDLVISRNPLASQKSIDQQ
Experiment: holdup assay
Set-up: key: below the threshold = too weak to quantify, mostly under pKd 3.1 to 4
Details: plain residues with an end cap or a label only (N-terminal biotin on a linker: ttds)
MEASURED_ENDPOINT: pKd

Reference set, count: 4
BINDER	REPORTED_RESULT
IYVPEAQTRL [DLGAP4, Q9Y2H0]	3.77
SVWLRKETRV [CYSLTR2, Q9NS75]	3.77
STLTIFETAL [ABCC4, O15439]	below the threshold
SSRTRRETQL [HPV16-E6, P03126]	below the threshold

Problem: Bench note: what pKd did ERKLSSESQV [LRP4, O75096] show?
Solution: below the threshold

Problem: What value of measured pKd is listed for SRPQRTQTQV [HPV67-E6, A4U7F2] ?
Solution: below the threshold

Problem: What value of measured pKd is listed for RSLEEEESQL [GRASP, Q7Z6J2] ?
Solution: below the threshold

Problem: Item under review: TVASEKESVM [SLC1A5, Q15758] . Reported pKd?
Solution: 3.67

Problem: Any idea what pKd was measured for QSARYRDTEL [TJP2, Q9UDY2] ?
Solution: 3.82

All values here come from paper PMC9482650.
